The origin of these recorded values is the RNAGym collection of RNA variant scans (doi:10.7554/elife.80360).

B1: HDV Ribozyme (parent)
chain: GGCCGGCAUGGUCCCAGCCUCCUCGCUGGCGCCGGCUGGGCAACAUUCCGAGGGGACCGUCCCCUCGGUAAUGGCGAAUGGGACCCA

Variants of: B1
Assay remarks: self-cleavage, relative activity (ratio to wild type); higher = more cleavage; co-transcriptional
Item-by-item account of self-cleavage

Example entries begin here.
{"Mutant designation": "G40A U72A", "Reported metric": "self-cleavage", "Recorded result": 0.446}
{"Mutant designation": "G11A C22A", "Reported metric": "self-cleavage", "Recorded result": 0.0443}
{"Mutant designation": "C32U G55A", "Reported metric": "self-cleavage", "Recorded result": 0.967}

// field: self-cleavage; key: C15U C84G ; value = 0.635

// field: self-cleavage; key: C63U A70C ; value = 1.07

// field: self-cleavage; key: U9A C22G ; value = 0.0519

// field: self-cleavage; key: A77G G82A ; value = 0.364

// field: self-cleavage; key: U9G G11A ; value = 0.346

// field: self-cleavage; key: A45G A83G ; value = 0.95

// field: self-cleavage; key: A51C C57A ; value = 1.02

// field: self-cleavage; key: U20C A70U ; value = 0.0594
